test system: HL-60; assay: NCI tumour cell line growth inhibition, 48 h
Active and inactive are the calls of the source. Cut-off read from the data, not from the text of the source: active = GI50 up to about 1.1 µM and inactive = higher.
Use one of these outcomes when replying: true (1) for active, false (0) for inactive

Illustrative cases are given below, each with its answer.
# compound, label
data = [
    ("O=[N+]([O-])/C(C(Cl)=C(Cl)Cl)=C(/Cl)SCc1ccccc1", "true (1)"),
    ("c1cc2c(cc1NC1=NCCO1)CCC2", "false (0)"),
    ("CC1(C)CCc2c(cc3c(c2O)CCC(C)(C)O3)O1", "false (0)"),
]

Request: How was O=C(O)c1ccc(Nc2nc3cc(C(F)(F)F)ccc3nc2-c2ccccc2)cc1 classified in this test?
Response: false (0)

Request: How was CC1CN1c1c(C(=O)/C=C/c2ccccc2)c(-c2ccccc2)nn(C)c1=O (centres undefined) classified in this test?
Response: false (0)

Request: How was CCC1CN2CCC1CC2 (centres undefined) classified in this test?
Response: false (0)

Request: How was N=C(N)N/N=C\c1c(-c2cccc([N+](=O)[O-])c2)nc2sccn12 classified in this test?
Response: false (0)

Request: How was COc1c(Cl)cc(S(=O)O)cc1Cl classified in this test?
Response: false (0)

Request: How was CC(CCC(=O)O)(c1cc(Br)c(O)c(Br)c1)c1cc(Br)c(O)c(Br)c1 classified in this test?
Response: false (0)

Request: How was CC(C)(C)c1cc(C(C)(C)C)c(SC2OC(CO)C(O)C(O)C2O)c(O)c1O (centres undefined) classified in this test?
Response: false (0)

Request: How was COc1cc(/C=C2/CCS(=O)(=O)c3ccc(C)cc3C2=O)cc(OC)c1OC classified in this test?
Response: false (0)

====

tested on: SK-OV-3; assay: NCI tumour cell line growth inhibition, 48 h
Calls of active or inactive are those of the source. Rule as the data show it: active = GI50 up to about 1.1 µM and inactive = higher.
Entries and their GI50 values follow.

# molecule, result
data = [
    ("CCOC(=O)N1C=CC(=C2C(=C3C=CN(C(=O)OCC)C=C3)C(=C3C=CN(C(=O)OCC)C=C3)C2=C2C=CN(C(=O)OCC)C=C2)C=C1", "44 µM (inactive)"),
    ("O=C(O)/C=C/c1c[nH]cn1", "> 500 µM (inactive)"),
    ("COc1cc(O)c2c(c1)O[C@@H]1OCC[C@H]21", "> 100 µM (inactive)"),
    ("C/C(=N\\NC(N)=S)c1cccs1.OB(O)c1ccccc1", "> 100 µM (inactive)"),
    ("NN/C(=N\\S(=O)(=O)c1cc(S(=O)(=O)c2ccccc2)cs1)Nc1ccc(Cl)cc1", "43.7 µM (inactive)"),
]

Request: Given the molecule COC(=O)C(=O)C(C(=O)C(=O)Nc1ccc(C)cc1C)c1nc2ccc(Cl)cc2nc1O (stereo unspecified) , what is its reported GI50?
Response: > 100 µM (inactive)

====

Entries and their GI50 values follow.
tested on: SK-OV-3; experiment: NCI tumour cell line growth inhibition, 48 h
Calls of active or inactive are those of the source. Rule as the data show it: active = GI50 up to about 1.1 µM and inactive = higher.

Examples with their reported GI50 follow.
# compound, readout-name, result
records = [
    ("Cc1ccc(NC(=O)c2cccc([N+](=O)[O-])c2O)c([N+](=O)[O-])c1", "GI50", "26.9 µM (inactive)"),
    ("Oc1cccc2cc(Br)cnc12", "GI50", "41.1 µM (inactive)"),
]

Request: Given the compound OCC(O)C(O)C(O)c1nn(-c2ccc(Cl)cc2)c2nc3cc(Cl)c(Cl)cc3nc12 (stereo not given) , what is its reported GI50?
Response: 23.8 µM (inactive)

Request: Given the compound CCOC(=O)/C(=C\NC(C)(C)C)c1nc2ccccc2[nH]1 , what is its reported GI50?
Response: 30.1 µM (inactive)

Request: Given the compound CCOC(=O)CCC(C(=O)OCC)n1nc2ccc(Nc3c(C)[n+]([O-])c4ccc(Cl)cc4[n+]3[O-])cc2n1 (stereo not given) , what is its reported GI50?
Response: 21.2 µM (inactive)
